For each record, write down the corresponding koff.
experimental target: T1, recombinant human GPC3 protein (human, UniProt P51654 25-563)
T1 construct: also called human GPC3 full-length protein; recombinant GPC3 protein
test summary: BLI (Octet), antibody on Protein A probe
Answers are plain numbers, in s⁻¹.

Example cases with answers are listed next.
[[record]]
binder = "h49G8VHv6VKv5 (antibody, V domains shown, Humanized 49G8) VH: QVQLVQSGAEVKKPGSSVKVSCKASGYTFADYEIHWVRQAPGQGLEWMGAIHPGSGGTAYAQKFQGRVTLTADESSTTAYMELSSLRSEDTAVYYCTRYYSFAYWGQGTLVTVSS VL: DVVMTQSPLSLPVTPGEPASISCRSSQSIVHSNTNTYLEWYLQKPGQSPQLLIYKVSNRFSGVPDRFSGSGSGTDFTLKISRVEAEDVGVYFCLQVTHVPLTFGQGTKLEIK"
unit_abbrev = "s⁻¹"
reading = 0.000193

[[record]]
binder = "h49G8VHv6VKv2 (antibody, V domains shown, Humanized 49G8; The name is read as h49G8VHv6 plus h49G8VKv2) VH: QVQLVQSGAEVKKPGSSVKVSCKASGYTFADYEIHWVRQAPGQGLEWMGAIHPGSGGTAYAQKFQGRVTLTADESSTTAYMELSSLRSEDTAVYYCTRYYSFAYWGQGTLVTVSS VL: DVVMTQSPLSLPVTPGEPASISCRSSQSIVHSNYNTYLEWYLQKPGQSPQLLIYKVSNRFSGVPDRFSGSGSGTDFTLKISRVEAEDVGVYFCLQVTHVPLTFGQGTKLEIK"
unit_abbrev = "s⁻¹"
reading = 0.000187


Here is another binder to look at.
Given the binder h49G8VHv6VKv6 (antibody, V domains shown, Humanized 49G8) VH: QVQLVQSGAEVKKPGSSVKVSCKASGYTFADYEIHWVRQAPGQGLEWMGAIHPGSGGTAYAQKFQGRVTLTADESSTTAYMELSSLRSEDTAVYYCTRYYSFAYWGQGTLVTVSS VL: DVVMTQSPLSLPVTPGEPASISCRSSQSIVHSNANTYLEWYLQKPGQSPQLLIYKVSNRFSGVPDRFSGSGSGTDFTLKISRVEAEDVGVYFCLQVTHVPLTFGQGTKLEIK , write its reported koff. 0.00022

Reference for the values: patent US20240043568A1
